Items are presented alongside their recorded BCL-XL % Bound.
- ASSAY SYSTEM: BCL-XLΔC (Homo sapiens)
- Sequence (Q07817 1-212 limits assumed, stated change not applied): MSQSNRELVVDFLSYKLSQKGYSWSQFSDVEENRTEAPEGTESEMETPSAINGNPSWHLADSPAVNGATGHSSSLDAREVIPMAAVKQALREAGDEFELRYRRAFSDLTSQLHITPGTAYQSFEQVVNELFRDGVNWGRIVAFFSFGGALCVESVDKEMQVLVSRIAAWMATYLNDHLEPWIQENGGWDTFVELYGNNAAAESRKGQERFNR
- PROCEDURE DETAILS: High-throughput competitive FP binding screen, FITC-BAD BH3/BCL-XLΔC interaction; note: test concentration or dose not given here
- ASSAY CONTEXT: FITC-BAD BH3/BCL-XLΔC interaction pair, competitive FP screen
Give your result in % as a bare value.

- COc1ccc(C(Nc2cc(C)ccn2)c2ccc3cccnc3c2O)cc1O (centres unmarked): 93.02
- Cc1cc(C)c2nc(N3CCCN(C(=O)c4ccco4)CC3)c(C#N)cc2c1: 92.2
- COc1ccc(/C=c2\s/c(=C\C(=O)c3ccco3)[nH]c2=O)cc1O: 263.7
- CS/C(=N\S(=O)(=O)c1ccccc1)NNc1ccccc1: 99.39
- CCN(CC)S(=O)(=O)c1ccc(-c2ccc(/C=N/N=C3\NC(=O)C(CC(=O)Nc4ccccc4)S3)o2)cc1 (centres unmarked): 100.7
- CCCCn1nnnc1COC(=O)/C(C#N)=C/c1ccc(N(C)C)cc1: 62.97
- C=CCN1C(=O)/C(=C2/C(=O)Nc3ccccc32)c2ccccc21: 77.55
- CC1CCN(C2=NN3C(=N)/C(=C\c4ccc(SCc5ccco5)o4)C(=O)N=C3S2)CC1: 84.68

stdin: Using the record for Cc1ccc(C2=NC(=O)C(Cc3cc(O)c(O)c(Br)c3)S2)cc1 (centres unmarked) , report its BCL-XL % Bound.
stdout: 96.59

stdin: One more compound: Cc1ccc(NC(=S)Nc2ccc3nc(-c4ccco4)c(-c4ccco4)nc3c2)cc1
stdout: 75.97

stdin: One more compound: N#C/C(=C/c1ccc(-c2ccc(C(=O)O)cc2)o1)c1ccc(Cl)cc1
stdout: 82.47

stdin: One more compound: CC(C)(C)c1ccc(-c2nnc(S)[nH]2)cc1
stdout: 96.8

stdin: One more compound: Cc1ccc(C(c2c(O)ccc3ccccc23)N2CCOCC2)o1 (centres unmarked)
stdout: 100.8

stdin: One more compound: CCCCCOc1ccc(C(=O)/C=C/C(=O)O)cc1
stdout: 97.46

stdin: One more compound: CCN(CC)c1ccc(C2C(C#N)=C(N)N(c3cccc(C)c3)C3=C2C(=O)CCC3)cc1 (centres unmarked)
stdout: 98.46

stdin: One more compound: O=C(O)c1cccc(-c2ccc(CC3Sc4ccccc4C3=O)o2)c1 (centres unmarked)
stdout: 95.42
